Consider the following compounds and their measured Activity readings.
SYSTEM_TESTED: Prostaglandin E2 receptor EP4 subtype (Homo sapiens, UniProt P35408)
Sequence (P35408 whole entry): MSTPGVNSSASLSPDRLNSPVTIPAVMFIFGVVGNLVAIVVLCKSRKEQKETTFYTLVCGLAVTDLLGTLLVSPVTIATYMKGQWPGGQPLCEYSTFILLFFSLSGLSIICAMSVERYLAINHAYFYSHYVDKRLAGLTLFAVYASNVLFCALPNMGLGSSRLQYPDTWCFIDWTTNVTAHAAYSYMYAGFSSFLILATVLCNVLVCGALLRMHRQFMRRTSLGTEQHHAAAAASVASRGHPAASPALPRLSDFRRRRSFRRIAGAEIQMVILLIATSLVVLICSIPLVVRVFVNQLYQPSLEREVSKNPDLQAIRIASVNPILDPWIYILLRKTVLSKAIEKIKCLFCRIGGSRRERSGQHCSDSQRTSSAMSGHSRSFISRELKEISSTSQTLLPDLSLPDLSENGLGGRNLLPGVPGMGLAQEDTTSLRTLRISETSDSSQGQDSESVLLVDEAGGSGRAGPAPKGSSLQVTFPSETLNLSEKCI
EXPERIMENT_DESCRIPTION: Activity at EP4 receptor at 0.1 uM by FLIPR assay
READOUT_NAME: Activity (%)

[[record]]
test_smiles = "Cc1cn(Cc2ccc3ccccc3c2)c2c(-c3cc(NS(=O)(=O)c4ccc(Cl)c(Cl)c4)no3)cc(F)cc12"
value_unit = "%"
val = -29

[[record]]
test_smiles = "Cc1cn(Cc2ccc(F)c(F)c2)c2c(-c3cc(NS(=O)(=O)c4ccc(F)c(F)c4F)no3)cc(F)cc12"
value_unit = "%"
val = -8

[[record]]
test_smiles = "Cc1cn(Cc2ccc3ccccc3c2)c2c(-c3cc(NS(=O)(=O)c4cc(Cl)c(Cl)s4)no3)cc(F)cc12"
value_unit = "%"
val = -9

[[record]]
test_smiles = "Cc1cn(Cc2ccc3ccccc3c2)c2c(-c3cc(NS(=O)(=O)c4cc(F)c(F)cc4F)no3)cc(F)cc12"
value_unit = "%"
val = -17

[[record]]
test_smiles = "Cc1cn(Cc2ccc(Cl)cc2Cl)c2c(-c3nnc(NS(=O)(=O)c4ccc(F)c(F)c4)o3)cc(F)cc12"
value_unit = "%"
val = 13

[[record]]
test_smiles = "Cc1cn(Cc2ccc(Cl)cc2Cl)c2c(-c3nnc(NS(=O)(=O)c4ccc(Cl)c(Cl)c4)o3)cc(F)cc12"
value_unit = "%"
val = -26

[[record]]
test_smiles = "Cc1cn(Cc2ccc(F)c(F)c2)c2c(-c3cc(NS(=O)(=O)c4cc(Cl)c(Cl)s4)no3)cc(F)cc12"
value_unit = "%"
val = 9

[[record]]
test_smiles = "Cc1cn(Cc2ccc3ccccc3c2)c2c(-c3cc(NS(=O)(=O)c4ccc(F)c(F)c4)no3)cc(F)cc12"
value_unit = "%"
val = -25


----------
EXPERIMENT_DESCRIPTION: Metabolic stability in rat liver microsomes assessed as compound remaining after 30 mins
Format: ADME, Microsome
EXPERIMENTAL_CONTEXT: read-out: Stability
remaining at 0.5 h under 40% gets y, anything at or over 40% gets n.

[[record]]
test_smiles = "Cc1cn(Cc2ccc3ccccc3c2)c2c(-c3cc(NS(=O)(=O)c4ccc(F)c(F)c4)no3)cc(F)cc12"
category = "y"

[[record]]
test_smiles = "Cc1cn(Cc2ccc(Cl)cc2Cl)c2c(-c3cc(NS(=O)(=O)c4ccc(F)c(F)c4)no3)cc(F)cc12"
category = "n"

[[record]]
test_smiles = "Cc1cn(Cc2ccc(Cl)cc2Cl)c2c(-c3nnc(NS(=O)(=O)c4ccc(F)c(F)c4)o3)cc(F)cc12"
category = "n"

[[record]]
test_smiles = "Cc1cn(Cc2ccc(Cl)cc2Cl)c2c(-c3nnc(NS(=O)(=O)c4cc(Cl)c(Cl)s4)o3)cc(F)cc12"
category = "n"

[[record]]
test_smiles = "Cc1cn(Cc2ccc(Cl)cc2Cl)c2c(-c3nnc(NS(=O)(=O)c4ccc(Cl)c(Cl)c4)o3)cc(F)cc12"
category = "n"

[[record]]
test_smiles = "Cc1cn(Cc2ccc(Cl)cc2Cl)c2c(-c3cc(NS(=O)(=O)c4cc(Cl)c(Cl)s4)no3)cc(F)cc12"
category = "n"


----------
SYSTEM_TESTED: Prostaglandin E2 receptor EP3 subtype (Homo sapiens) (UniProt P43115)
EXPERIMENT_DESCRIPTION: Displacement of [3H]PGE2 from human EP3 receptor in presence of 10% human serum
fold change (FC) under 20 gets 1, anything at or over 20 gets -1.

[[record]]
test_smiles = "Cc1cn(Cc2ccc(Cl)cc2Cl)c2c(-c3cc(NS(=O)(=O)c4cc(Cl)c(Cl)s4)no3)cc(F)cc12"
category = -1

[[record]]
test_smiles = "Cc1cn(Cc2ccc(F)c(F)c2)c2c(-c3cc(NS(=O)(=O)c4cc(Cl)c(Cl)s4)nn3C)cc(F)cc12"
category = 1

[[record]]
test_smiles = "Cc1cn(Cc2ccc(Cl)cc2Cl)c2c(-c3nnc(NS(=O)(=O)c4cc(F)c(F)cc4F)o3)cc(F)cc12"
category = -1

[[record]]
test_smiles = "Cc1cn(Cc2ccc(Cl)cc2Cl)c2c(-c3nnc(NS(C)(=O)=O)o3)cc(F)cc12"
category = -1

[[record]]
test_smiles = "Cc1cn(Cc2ccc(Cl)cc2Cl)c2c(-c3nnc(NS(=O)(=O)c4ccc(Cl)c(Cl)c4)o3)cc(F)cc12"
category = 1

[[record]]
test_smiles = "Cc1cn(Cc2ccc(Cl)cc2Cl)c2c(-c3nc(NS(=O)(=O)c4cc(Cl)c(Cl)s4)no3)cc(F)cc12"
category = -1

[[record]]
test_smiles = "Cc1cn(Cc2ccc(F)c(F)c2)c2c(-c3cc(NS(=O)(=O)c4ccc(F)c(F)c4F)no3)cc(F)cc12"
category = -1

[[record]]
test_smiles = "Cc1cn(Cc2ccc(Cl)cc2Cl)c2c(-c3nnc(NS(=O)(=O)c4ccc(F)c(F)c4)o3)cc(F)cc12"
category = 1


----------
SYSTEM_TESTED: Prostaglandin F2-alpha receptor (Homo sapiens)
Sequence (P43088 whole entry): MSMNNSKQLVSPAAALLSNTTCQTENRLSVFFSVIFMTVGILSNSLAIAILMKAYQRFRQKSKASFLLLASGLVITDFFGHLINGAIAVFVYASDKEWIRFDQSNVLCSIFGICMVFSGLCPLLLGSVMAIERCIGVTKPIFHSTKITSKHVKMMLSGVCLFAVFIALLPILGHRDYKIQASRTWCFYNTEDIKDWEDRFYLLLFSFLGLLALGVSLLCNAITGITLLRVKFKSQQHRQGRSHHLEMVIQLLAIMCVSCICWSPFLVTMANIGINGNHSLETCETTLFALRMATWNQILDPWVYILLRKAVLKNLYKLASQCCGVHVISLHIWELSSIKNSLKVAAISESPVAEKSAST
EXPERIMENT_DESCRIPTION: Activity at FP receptor at 0.1 uM by FLIPR assay
Consider the following molecules and their measured Activity readings.
READOUT_NAME: Activity (%)

[[record]]
test_smiles = "Cc1cn(Cc2ccc3ccccc3c2)c2c(-c3cc(NS(=O)(=O)c4ccc(F)c(F)c4)no3)cc(F)cc12"
readout_name = "Activity"
val = -9

[[record]]
test_smiles = "Cc1cn(Cc2ccc(Cl)cc2Cl)c2c(-c3nnc(NC(=O)c4ccc(F)c(F)c4)o3)cc(F)cc12"
readout_name = "Activity"
val = 3

[[record]]
test_smiles = "Cc1cn(Cc2ccc(Cl)cc2Cl)c2c(-c3nnc(NS(=O)(=O)c4cc(F)c(F)cc4F)o3)cc(F)cc12"
readout_name = "Activity"
val = 5

[[record]]
test_smiles = "Cc1cn(Cc2ccc(Cl)cc2Cl)c2c(-c3nnc(NS(=O)(=O)c4ccc(F)c(F)c4)o3)cc(F)cc12"
readout_name = "Activity"
val = 22


----------
SYSTEM_TESTED: Prostaglandin E2 receptor EP3 subtype (Homo sapiens, UniProt P43115)
Sequence (P43115 whole entry): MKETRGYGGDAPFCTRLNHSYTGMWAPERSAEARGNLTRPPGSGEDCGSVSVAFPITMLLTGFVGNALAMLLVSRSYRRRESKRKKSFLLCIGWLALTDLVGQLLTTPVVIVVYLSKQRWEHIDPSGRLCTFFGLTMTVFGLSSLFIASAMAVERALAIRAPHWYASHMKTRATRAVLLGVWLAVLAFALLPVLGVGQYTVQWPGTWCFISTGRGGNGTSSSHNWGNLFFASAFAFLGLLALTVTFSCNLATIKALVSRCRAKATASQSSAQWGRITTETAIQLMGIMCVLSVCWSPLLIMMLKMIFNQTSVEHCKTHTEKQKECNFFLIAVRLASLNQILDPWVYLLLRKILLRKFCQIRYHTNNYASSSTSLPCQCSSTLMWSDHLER
READOUT_NAME: IC50 (nM)

[[record]]
test_smiles = "Cc1cn(Cc2ccc3ccccc3c2)c2c(-c3cc(NS(=O)(=O)c4ccc(F)c(F)c4)no3)cc(F)cc12"
val = 1

[[record]]
test_smiles = "Cc1cn(Cc2ccc3ccccc3c2)c2c(-c3cc(NS(=O)(=O)c4cc(Cl)c(Cl)s4)no3)cc(F)cc12"
val = 1

[[record]]
test_smiles = "Cc1cn(Cc2ccc3ccccc3c2)c2c(-c3cc(NS(=O)(=O)c4cc(F)c(F)cc4F)no3)cc(F)cc12"
val = 8

[[record]]
test_smiles = "Cc1cn(Cc2ccc(Cl)cc2Cl)c2c(-c3nnc(NC(=O)c4ccc5c(c4)OC(F)(F)O5)o3)cc(F)cc12"
val = 244

[[record]]
test_smiles = "Cc1cn(Cc2ccc(Cl)cc2Cl)c2c(-c3nnc(NS(=O)(=O)c4ccc(Cl)c(Cl)c4)o3)cc(F)cc12"
val = 4

[[record]]
test_smiles = "Cc1cn(Cc2ccc(Cl)cc2Cl)c2c(-c3cc(NS(=O)(=O)c4ccc(F)c(F)c4)no3)cc(F)cc12"
val = 1

[[record]]
test_smiles = "Cc1cn(Cc2ccc3ccccc3c2)c2c(-c3cc(NS(=O)(=O)c4ccc(Cl)c(Cl)c4)no3)cc(F)cc12"
val = 11

[[record]]
test_smiles = "Cc1cn(Cc2ccc(Cl)cc2Cl)c2c(-c3ccc(NS(=O)(=O)c4cc(Cl)c(Cl)s4)nc3)cc(F)cc12"
val = 2

[[record]]
test_smiles = "Cc1cn(Cc2ccc(F)c(F)c2)c2c(-c3cc(NS(=O)(=O)c4ccc(F)c(F)c4)no3)cc(F)cc12"
val = 44

[[record]]
test_smiles = "Cc1cn(Cc2ccc(Cl)cc2Cl)c2c(-c3nnc(NS(=O)(=O)c4ccc(F)c(F)c4)o3)cc(F)cc12"
val = 20


----------
Consider the following compounds and their measured fold change (FC) readings.
SYSTEM_TESTED: Prostaglandin E2 receptor EP3 subtype (Homo sapiens) (UniProt P43115)
EXPERIMENT_DESCRIPTION: Displacement of [3H]PGE2 from human EP3 receptor in presence of 10% human serum
READOUT_NAME: fold change (FC)

[[record]]
test_smiles = "Cc1cn(Cc2ccc3ccccc3c2)c2c(-c3cc(NS(=O)(=O)c4cc(F)c(F)cc4F)no3)cc(F)cc12"
system_tested = "Prostaglandin E2 receptor EP3 subtype (Homo sapiens) (UniProt P43115)"
readout_name = "fold change (FC)"
val = 2.3

[[record]]
test_smiles = "Cc1cn(Cc2ccc3ccccc3c2)c2c(-c3cc(NS(=O)(=O)c4ccc(Cl)c(Cl)c4)no3)cc(F)cc12"
system_tested = "Prostaglandin E2 receptor EP3 subtype (Homo sapiens) (UniProt P43115)"
readout_name = "fold change (FC)"
val = 4.9

[[record]]
test_smiles = "Cc1cn(Cc2ccc(Cl)cc2Cl)c2c(-c3ccc(NS(=O)(=O)c4cc(Cl)c(Cl)s4)nc3)cc(F)cc12"
system_tested = "Prostaglandin E2 receptor EP3 subtype (Homo sapiens) (UniProt P43115)"
readout_name = "fold change (FC)"
val = 217

[[record]]
test_smiles = "Cc1cn(Cc2ccc3ccccc3c2)c2c(-c3cc(NS(=O)(=O)c4ccc(F)c(F)c4)no3)cc(F)cc12"
system_tested = "Prostaglandin E2 receptor EP3 subtype (Homo sapiens) (UniProt P43115)"
readout_name = "fold change (FC)"
val = 14.6

[[record]]
test_smiles = "Cc1cn(Cc2ccc(Cl)cc2Cl)c2c(-c3nnc(NC(=O)c4ccc(Cl)cc4Cl)o3)cc(F)cc12"
system_tested = "Prostaglandin E2 receptor EP3 subtype (Homo sapiens) (UniProt P43115)"
readout_name = "fold change (FC)"
val = 1

[[record]]
test_smiles = "Cc1cn(Cc2ccc(Cl)cc2Cl)c2c(-c3cc(NS(=O)(=O)c4ccc(Cl)c(Cl)c4)no3)cc(F)cc12"
system_tested = "Prostaglandin E2 receptor EP3 subtype (Homo sapiens) (UniProt P43115)"
readout_name = "fold change (FC)"
val = 18

[[record]]
test_smiles = "Cc1cn(Cc2ccc(F)c(F)c2)c2c(-c3cc(NS(=O)(=O)c4ccc(F)c(F)c4)no3)cc(F)cc12"
system_tested = "Prostaglandin E2 receptor EP3 subtype (Homo sapiens) (UniProt P43115)"
readout_name = "fold change (FC)"
val = 178

[[record]]
test_smiles = "Cc1cn(Cc2ccc3ccccc3c2)c2c(-c3cc(NS(=O)(=O)c4cc(Cl)c(Cl)s4)no3)cc(F)cc12"
system_tested = "Prostaglandin E2 receptor EP3 subtype (Homo sapiens) (UniProt P43115)"
readout_name = "fold change (FC)"
val = 3.6

[[record]]
test_smiles = "Cc1cn(Cc2ccc(Cl)cc2Cl)c2c(-c3cc(NS(=O)(=O)c4cc(F)c(F)cc4F)no3)cc(F)cc12"
system_tested = "Prostaglandin E2 receptor EP3 subtype (Homo sapiens) (UniProt P43115)"
readout_name = "fold change (FC)"
val = 3.3

[[record]]
test_smiles = "Cc1cn(Cc2ccc(F)c(F)c2)c2c(-c3cc(NS(=O)(=O)c4cc(Cl)c(Cl)s4)no3)cc(F)cc12"
system_tested = "Prostaglandin E2 receptor EP3 subtype (Homo sapiens) (UniProt P43115)"
readout_name = "fold change (FC)"
val = 24.2

[[record]]
test_smiles = "Cc1cn(Cc2ccc(Cl)cc2Cl)c2c(-c3nnc(NS(=O)(=O)c4cc(Cl)c(Cl)s4)o3)cc(F)cc12"
system_tested = "Prostaglandin E2 receptor EP3 subtype (Homo sapiens) (UniProt P43115)"
readout_name = "fold change (FC)"
val = 27

[[record]]
test_smiles = "Cc1cn(Cc2ccc(Cl)cc2Cl)c2c(-c3nnc(NC(=O)c4ccc(F)c(F)c4)o3)cc(F)cc12"
system_tested = "Prostaglandin E2 receptor EP3 subtype (Homo sapiens) (UniProt P43115)"
readout_name = "fold change (FC)"
val = 19.6

[[record]]
test_smiles = "Cc1cn(Cc2ccc(Cl)cc2Cl)c2c(-c3cc(NS(=O)(=O)c4ccc(F)c(F)c4)no3)cc(F)cc12"
system_tested = "Prostaglandin E2 receptor EP3 subtype (Homo sapiens) (UniProt P43115)"
readout_name = "fold change (FC)"
val = 12

[[record]]
test_smiles = "Cc1cn(Cc2ccc(Cl)cc2Cl)c2c(-c3nnc(NC(=O)c4ccc5c(c4)OC(F)(F)O5)o3)cc(F)cc12"
system_tested = "Prostaglandin E2 receptor EP3 subtype (Homo sapiens) (UniProt P43115)"
readout_name = "fold change (FC)"
val = 21.4

